- experimental details: Toxicity against PHA-activated human peripheral lymphocytes assessed as cell viability after 72 hrs by MTT assay
- Type: cell-based, Lymphocyte
metric: IC50 at 72 h (nM)
The response must be a number in nM with no trailing unit.

For the molecule O=C1C=CC2=C(OC[C@@H]3c4cc5c(cc4O[C@H]23)OCO5)C1=O (racemic) , give its measured IC50 at 72 h value.
2400
